# Analgesia listing for each entry below
species on record: Mus musculus; assay: Maximum percent analgesia using tail flick test in mice; format: functional
Please provide the amount together with its unit, number first.

>>> df
                                   compound  endpoint_name  test_result
0  COc1ccc2c3c1OC1C(=O)CCC4(Nc5ccccc5)C(C2)N(CC2CC2)CCC314 (centres undefined)      Analgesia          10%
1  COc1ccc2c(c1O)C13CCN(C)C(C2)C12C=CC(=O)C3ON2c1ccccc1 (centres undefined)      Analgesia          50%

Please look at the following compound next.
q: Looking for the measured Analgesia of COc1ccc2c(c1O)C13CCN(CC4CC4)C(C2)C12C=CC(=O)C3ON2c1ccc(F)cc1 (centres undefined) , can you help?
a: 20%

Cited source for all entries: ChEMBL document CHEMBL1121464
